System: PPARg homodimer (NR concentration 180 nM)
Assay: PBM binding z-score (relative to random genomic background probes); higher = stronger binding; sequences stand for … in GC…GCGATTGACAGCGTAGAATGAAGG
Label scheme for PBM binding z-score: lower than 1 is 0, 1 and above is 1.

Lookup: Dear colleague, could you confirm whether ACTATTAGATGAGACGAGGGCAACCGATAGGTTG has PBM binding z-score at or above 1?
Found: 1

Lookup: Is reported PBM binding z-score greater than or equal to 1 here: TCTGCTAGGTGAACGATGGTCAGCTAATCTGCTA
Found: 0

Lookup: Could you tell me if the measured PBM binding z-score of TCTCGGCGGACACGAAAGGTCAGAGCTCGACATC reaches 1 or more?
Found: 1

Lookup: Could you tell me if the measured PBM binding z-score of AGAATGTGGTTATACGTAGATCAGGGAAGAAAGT reaches 1 or more?
Found: 0

Lookup: Is it the case that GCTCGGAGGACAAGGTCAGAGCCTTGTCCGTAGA has PBM binding z-score reaching or exceeding 1?
Found: 0
